# protocol-notes: qHTS for Inhibitors of the Functional Ribonucleoprotein Complex (vRNP) of Lassa (LASV) Arenavirus: LASV Primary Screen - GLuc reporter signal (AID 1347082); further: nearly all actives have a fitted effect of over 60% in size
# experimental-context: LASV minigenome vRNP, Gaussia luciferase reporter; series mostly up to 57.5 µM
Results filed as inconclusive are left out. Active and inactive are the calls of the source. The call rests on the fitted dose curve; tested in HEK293 reporter line.
Respond using exactly one of the listed classes: active, inactive

Answered cases to consult:
>>> df
                                   compound  answer_label
0  Cc1cccc(-c2nn(C(=S)Nc3ccccc3)cc2-c2ccnc3ccccc23)n1      inactive
1  Cc1ccc(C(=O)Nc2cccc(C(F)(F)F)c2)cc1-c1ccc2nc(NCCN3CCOCC3)ncc2c1        active
2  CNC(=O)c1cc(Oc2ccc(NC(=O)Nc3cc(C(C)(C)C)nn3-c3ccc4ncccc4c3)c(F)c2)ccn1        active
3  NC(=O)C1CCCc2c1[nH]c1ccc(Cl)cc21 (centres undefined)      inactive
4  Cc1c(C(=O)Nc2ccc(N3C[C@@H](C)O[C@@H](C)C3)nc2)cccc1-c1ccc(OC(F)(F)F)cc1      inactive
5                       [O-][n+]1cccc(CO)c1      inactive
6  C[C@H]([C@H](O)CCC(C)(C)O)[C@H]1CC[C@@]2(O)C3=CC(=O)[C@@H]4C[C@@H](O)[C@@H](O)C[C@]4(C)[C@@H]3CC[C@]12C      inactive
7  O=C(C=Cc1ccc(/C=C/C(=O)Nc2ccc(C3=NCCN3)cc2)cc1)Nc1ccc(C2=NCCN2)cc1      inactive

What call does the record list for CC(C)NCC(O)c1ccc([N+](=O)[O-])cc1 (centres undefined) ? inactive
